target: GalNAc(b1-3)Gal(a1-6)Gal(b1-4)Glc; assay: glycan array binding signal (z-score within array); higher = stronger binding; conditions: glycan notation: IUPAC condensed, linker removed
Only a selection was taken, and the strongest signals are over-represented in it overall.
RECORDED_ENDPOINT: glycan array binding signal (z-score)
Numbers only.

Example binders with recorded glycan array binding signal (z-score):
- BINDER: "Epa19 (Candida glabrata) (protein) MGSSHHHHHHSSGLVPRGSHMASSKDPTRFPIGCSPQVLKTQPGLAVKLYSYGHPVPGCSYITYQYPDFPRSGYKKERKLADITGVNGKIDIDLKPNDPCRVLTGHLPSNYNYPDTLTYTNFTMILYGYFQPKVTGYHTFNLEADDLLFMNLGAGNAFDCCKAESTLDNFGNYQSYSLWGSDYAKANITVFLVSGVYYPIRLFYVNRDNNAVIDFSFTTEFDKEKVHDFTSYFFSASDGEQCPGSV"
  RECORDED_ENDPOINT: "glycan array binding signal (z-score)"
  OBSERVED_RESULT: -0.525
- BINDER: "Epa9 (Candida glabrata), CAGL0A01386g (protein) MGSSHHHHHHSSGLVPRGSHMDITPFAHYPRPEGCSSPPNAVSVGLHMDLYNYPYLYVKNPRTGFTNDTDSDADGETDGDSAGGIEGRAGQCWNPEYQDPNFPRYGYKKYGSFGSSDHVNGKISWDHNEFKEGCKPIMARLPTAYNYPAKITFSNFTMVLSGYFKPKSTGLYKFEIHADDFILFNFGSKNAFECCNREESIDNFGPYVAYAMWPNEADQELEVYLFEDSYYPIRLFYNNRDYHSKFMVGFYPPNTEEITYDFDGYLYMLDDTGNECKDSIRYKTVCDD"
  RECORDED_ENDPOINT: "glycan array binding signal (z-score)"
  OBSERVED_RESULT: -0.468
- BINDER: "PGP3 (Chlamydia trachomatis), P0CE18 (protein) MGNSGFYLYNTQNCVFADNIKVGQMTEPLKDQQIILGTTSTPVAAKMTASDGISLTVSNNPSTNASITIGLDAEKAYQLILEKLGDQILGGIADTIVDSTVQDILDKITTDPSLGLLKAFNNFPITNKIQCNGLFTPRNIETLLGGTEIGKFTVTPKSSGSMFLVSADIIASRMEGGVVLALVREGDSKPYAISYGYSSGVPNLCSLRTRIINTGLTPTTYSLRVGGLESGVVWVNALSNGNDILGITNTSNVSFLEVIPQTNA"
  RECORDED_ENDPOINT: "glycan array binding signal (z-score)"
  OBSERVED_RESULT: 2.89
- BINDER: "SAG3 (Toxoplasma gondii), Q9BJ39 (protein) MQLWRRRAAGPASLGRQSLPLGCFFAAFGLCVLSAILGTGERGLFVAAGNSRRKITYFGTLTQKAPNWYRCSSTRAKEEVVGHVTLNKEHPDMTIECVDDGLGGEFLPLEGARSSYPRVCHIDAKDQDDCERNRGFLTDYIPGAKQYWYKIEKVEQNGEQSVLYKFTVPWILLPPAKQRYKVGCRYPNHEYCFVEVTVEPTPPMVEGKRVTCGYSESGPVNLEVDLSKNANFIEIRCGEQHHPQPSTYTLQYCSGDSVDPQKCSPQSLTNIFYDYSSSWWKGKLNGPDGATLTIPPGGFPEEDKSFLVGCSLTVDGPPFCNVKVRVAGNPRKWERGGGGHPGSGGLQPGTDGETQAGTGSSAGASSRMASVALAFLLGLLVHVAA"
  RECORDED_ENDPOINT: "glycan array binding signal (z-score)"
  OBSERVED_RESULT: -0.162
- BINDER: "FimA-N1 (Actinomyces oris) (protein) MHHHHHHSSGVDLGTENLYFQSNATETPNYGNIKTDATGSLVIHKHLTGGGKDIGTPTGTAQNADDKGPAVEGVVFTAYPITDINLKDPAGWDTISNLSRTGVPDSACANPAAPTLGAHQFGTPKVSPATTKEGLATITEMPVQAYLVCETTTPGDIVQKAKPFVVTIPHPNTAAGADGQWIYDVNVYPKNEAIDVDKTIQAQK"
  RECORDED_ENDPOINT: "glycan array binding signal (z-score)"
  OBSERVED_RESULT: -0.352

Next:
Note glycan array binding signal (z-score) for the binder shown: BSR4 (Toxoplasma gondii), Q95NL6 (protein) MVMMGSMQQRRGGLRSNARQLLAVCMSGVVFFSSGQAVADNLLEGLLHRTLQQQVEVTSRLTVAGSDAKCDFFTPATQDSPPVSGSLTLSKGRMTATFECSATQALSISTIPTNIEQNVCDPKKTTNGTVCQFGANGSAGTEVTLKDLLETDRIVNWKVNEQREESNKSQKWSLELHNEDLPLTDKAFVVGCQATSAARGTESGKTAACKLTVNVEARASSLAENNVVTCAYGKGSNPNPVEVEMSTEKNTLTINCGSDGSLQPTTYAEEYCVADSKDVNRCSTTRFVEIFPKFLKSWWVTETQKRTSATLTIPQTDLPEADQQFLVGCVPKKTAPEDPKKDKESGTETGAPTSCTVLVTVKAASSASHASPTVQILAAASSAAA
-0.617

Origin of the recorded values: the supplement of paper PMC8728848
